All values here come from PubChem BioAssay (NCATS).

- testSummary: qHTS Assay for Identification of Small Molecule Antagonists for NFkB Signaling Pathway (AID 895)
- measurementConditions: NFkB beta-lactamase reporter cells, FRET ratio 460/530, stimulated with 10 pM TNF alpha; series mostly up to 38.3 µM
- Procedure: NIH Molecular Libraries Screening Centers Network [MLSCN] NIH Chemical Genomics Center [NCGC] The TNF alpha/NFkB signaling pathway was assayed in NFkB-bla cells (Invitrogen), a ME-180 cervical carcinoma line containing a stably integrated beta-lactamase reporter gene controlled by a NFkB response element. […] The assay was screened at the EC50 of TNF alpha activation to identify inhibitors of TNF alpha/NFkB signaling. NCGC Assay Protocol Summary: […]
Inconclusive results are not listed. Calls of active or inactive are those of the source. Calls come from the whole dose curve; as a rule, active = well fitted inhibition curve with a large enough effect in the signal ratio, with a control signal flat (not every such curve was filed as active); inconclusive = small, poorly fitted or top-dose-only effect, or effect the other way, or a change in a side signal; inactive = flat fitted curve, though single readings scatter; the % refers to the signal ratio.
Outcomes: active, inactive

INSERT INTO results (structuresmiles, classification) VALUES
  ('COc1cc2c(CCNC(C)=O)c[nH]c2cc1O', 'inactive'),
  ('O=C(O)C1CCNCC1', 'inactive'),
  ('COc1ccc(CCN(C)CCc2ccc(OC)c(OC)c2)cc1OC', 'inactive'),
  ('CCCCCCCCCCCCCCSCC(=O)O', 'inactive'),
  ('CCCn1c(=O)c2[nH]c(C3CCCC3)nc2n(CCC)c1=O', 'inactive'),
  ('NC(=Nc1ccccc1)NC(=O)c1nc(Cl)c(N)nc1N', 'active'),
  ('O=C(O)C1=CCCNC1', 'inactive'),
  ('O=C(O)C1=CCNCC1', 'inactive'),
  ('C[N+](C)(C)CC=O', 'inactive'),
  ('N[C@H](C(=O)O)c1cc(O)cc(O)c1', 'inactive'),
  ('C=CC[C@H](N)C(=O)O', 'inactive'),
  ('NOCC(=O)O', 'inactive'),
  ('CCN1C(=O)C=CC1=O', 'inactive'),
  ('C#CCn1c(=O)c2c(ncn2C)n(C)c1=O', 'inactive'),
  ('NC(=O)c1ccccc1', 'inactive'),
  ('COc1ccc(-c2ccc(N)[n+](CCCC(=O)O)n2)cc1', 'inactive'),
  ('O=C1Nc2ccc(I)cc2/C1=C/c1cc(Br)c(O)c(Br)c1', 'active'),
  ('NCCCNCCCCNCCCN', 'inactive'),
  ('N#CC(C#N)=C(N)/C(C#N)=C/c1ccc(O)cc1', 'inactive'),
  ('O=C(O)/C(=C/c1c(C(=O)O)[nH]c2cc(Cl)cc(Cl)c12)c1ccccc1', 'inactive'),
  ('CCCCCCN(CCCCCC)C(=O)Cc1c(-c2ccc(F)cc2)[nH]c2ccccc12', 'inactive'),
  ('NC/C=C\C(=O)O', 'inactive'),
  ('Clc1nccc2c1ccc1ccccc12', 'inactive'),
  ('CNCCNS(=O)(=O)c1cccc2cnccc12', 'active'),
  ('CSC(=N)N', 'inactive'),
  ('O=c1onc2cnc3ccccc3n12', 'active'),
  ('NC1(C(=O)O)CCCCC1', 'inactive');

----------
- testSummary: qHTS for inhibitors of adenylyl cyclases using a fission yeast platform: a pilot screen against the NCATS LOPAC library (AID 1347410);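 note: plate controls were DMSO vehicle for no effect and DPI positive control for full effect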
- measurementConditions: S. pombe CHP2027, fbp1-GFP fluorescence, 18 h, yeast expressing mammalian AC9 and human GNAS; series mostly up to 57.5 µM
Active and inactive are the calls of the source. Calls come from the whole dose curve; as a rule, active = well fitted curve in the direction sought with a large enough effect; inconclusive = small, poorly fitted or top-dose-only effect, or effect the other way, or another doubt; inactive = no such curve, though single readings can be large or run the other way.
measurementLabel: outcome

INSERT INTO assay_data (molecule, readoutvalue) VALUES
  ('CCCCCCCCCC(=O)NC(CN1CCOCC1)[C@H](O)c1ccccc1 (stereo partly drawn)', 'inactive'),
  ('C=C1C(=O)O[C@@H]2[C@H]3O[C@]3(C)CCC=C(C)CC[C@@H]12', 'inactive'),
  ('CN1CCCC1CCOC(C)(c1ccccc1)c1ccc(Cl)cc1 (stereo not drawn)', 'inactive');

----------
- targetOrTestSystem: Glutaminase kidney isoform, mitochondrial (Homo sapiens) (UniProt O94925)
- Sequence (O94925 whole entry, looked up, canonical isoform): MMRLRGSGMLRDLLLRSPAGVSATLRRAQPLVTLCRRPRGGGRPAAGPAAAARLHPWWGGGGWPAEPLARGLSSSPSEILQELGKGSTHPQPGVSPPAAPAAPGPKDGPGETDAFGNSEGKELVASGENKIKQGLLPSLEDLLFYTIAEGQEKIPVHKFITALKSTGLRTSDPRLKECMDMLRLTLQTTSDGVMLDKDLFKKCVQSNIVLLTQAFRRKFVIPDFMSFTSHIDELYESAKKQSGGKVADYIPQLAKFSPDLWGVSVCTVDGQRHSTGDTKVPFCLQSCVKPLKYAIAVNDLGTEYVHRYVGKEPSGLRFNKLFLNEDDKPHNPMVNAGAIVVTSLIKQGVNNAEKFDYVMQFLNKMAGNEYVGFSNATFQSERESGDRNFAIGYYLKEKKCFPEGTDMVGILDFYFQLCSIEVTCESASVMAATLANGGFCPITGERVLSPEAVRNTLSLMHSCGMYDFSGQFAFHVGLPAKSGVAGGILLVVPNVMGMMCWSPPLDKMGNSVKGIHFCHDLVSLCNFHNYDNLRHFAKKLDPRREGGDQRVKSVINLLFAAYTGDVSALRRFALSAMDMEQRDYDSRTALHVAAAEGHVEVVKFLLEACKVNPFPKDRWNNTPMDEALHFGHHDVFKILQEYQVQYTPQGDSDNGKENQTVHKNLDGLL
- testSummary: qHTS for Inhibitors of Glutaminase (GLS): LOPAC Validation (AID 624146); note: nearly all actives have a fitted effect of over 60% in size
- measurementConditions: glutaminase enzyme activity inhibition; series mostly up to 46.1 µM
Results filed as inconclusive are left out. Calls of active or inactive are those of the source. Calls come from the whole dose curve; as a rule, active = well fitted inhibition curve with a large enough effect; inconclusive = small, poorly fitted or top-dose-only effect; inactive = no such curve, though single readings can be large or run the other way.
Outcomes: 1.0 (active), 0.0 (inactive)

INSERT INTO assay_data (molecule, targetortestsystem, classification) VALUES
  ('C[C@H]1CC2C3CCC4=CC(=O)C=C[C@]4(C)[C@@]3(Cl)[C@@H](O)C[C@]2(C)[C@@]1(O)C(=O)CO (stereo partly drawn)', 'Glutaminase kidney isoform, mitochondrial (Homo sapiens) (UniProt O94925)', 0.0),
  ('OC1(c2ccc(Cl)cc2)CCN(Cc2c[nH]c3ccccc23)CC1', 'Glutaminase kidney isoform, mitochondrial (Homo sapiens) (UniProt O94925)', 0.0),
  ('NCC(O)(CS(=O)(=O)O)c1ccc(Cl)cc1 (stereo not drawn)', 'Glutaminase kidney isoform, mitochondrial (Homo sapiens) (UniProt O94925)', 0.0),
  ('C=CC1(C)CC(=O)C2(O)C(C)(O1)C(OC(C)=O)C(O)C1C(C)(C)CCC(O)C12C (stereo not drawn)', 'Glutaminase kidney isoform, mitochondrial (Homo sapiens) (UniProt O94925)', 0.0),
  ('C=CC[C@H](N)C(=O)O', 'Glutaminase kidney isoform, mitochondrial (Homo sapiens) (UniProt O94925)', 0.0),
  ('N[C@H](C(=O)O)[C@H]1C[C@@H]1C(=O)O', 'Glutaminase kidney isoform, mitochondrial (Homo sapiens) (UniProt O94925)', 0.0),
  ('O=c1cc(-c2ccccc2F)[nH]c2cc3c(cc12)OCO3', 'Glutaminase kidney isoform, mitochondrial (Homo sapiens) (UniProt O94925)', 0.0),
  ('CC1CCN=C(N)S1 (stereo not drawn)', 'Glutaminase kidney isoform, mitochondrial (Homo sapiens) (UniProt O94925)', 0.0),
  ('NC(=O)c1ccccc1', 'Glutaminase kidney isoform, mitochondrial (Homo sapiens) (UniProt O94925)', 0.0),
  ('C=CCn1c(=O)c2c(nc(-c3ccc(S(=O)(=O)O)cc3)n2C)n(C)c1=O', 'Glutaminase kidney isoform, mitochondrial (Homo sapiens) (UniProt O94925)', 0.0),
  ('Cc1nc2n(c(=O)c1CCN1CCC(c3noc4cc(F)ccc34)CC1)CCCC2O (stereo not drawn)', 'Glutaminase kidney isoform, mitochondrial (Homo sapiens) (UniProt O94925)', 0.0),
  ('C[C@H](NC(=O)/C(C#N)=C/c1ccc(O)c(O)c1)c1ccccc1', 'Glutaminase kidney isoform, mitochondrial (Homo sapiens) (UniProt O94925)', 1.0),
  ('COC(=O)C(C)(N)Cc1ccc(O)cc1 (stereo not drawn)', 'Glutaminase kidney isoform, mitochondrial (Homo sapiens) (UniProt O94925)', 0.0),
  ('NS(=O)(=O)c1cccc2c1c([N+](=O)[O-])cc1nc(O)c(O)nc12', 'Glutaminase kidney isoform, mitochondrial (Homo sapiens) (UniProt O94925)', 0.0),
  ('CSC(N)=NCCC[C@H](N)C(=O)O', 'Glutaminase kidney isoform, mitochondrial (Homo sapiens) (UniProt O94925)', 0.0),
  ('O=C1NC(=O)c2cc(Nc3ccccc3)c(Nc3ccccc3)cc21', 'Glutaminase kidney isoform, mitochondrial (Homo sapiens) (UniProt O94925)', 1.0),
  ('Oc1ccc(Cn2cc[nH]c2=S)cc1', 'Glutaminase kidney isoform, mitochondrial (Homo sapiens) (UniProt O94925)', 0.0),
  ('O=c1onc2n1-c1cc(Br)ccc1OC2', 'Glutaminase kidney isoform, mitochondrial (Homo sapiens) (UniProt O94925)', 0.0);

----------
- testSummary: Primary qHTS for inhibitors of La Crosse Virus (LACV) - induced cell death in SH-SY5Y cells (AID 1508616)
- measurementConditions: SH-SY5Y LACV cytopathicity rescue, ATP luminescence, 6 d; series mostly up to 9.63 µM
- Text: Assay Provider: Karin Peterson Ph.D. National Institute of Allergy and Infection Diseases, National Institute of Health […] 8. Detection; Luminescence; View […] 6. Dispense 24 microL/well of ATPLite 1step Luminescence assay system (PerkinElmer). […] 8. Read luminescence signal (Viewlux plate reader, PerkinElmer). […]
Records with an inconclusive call do not appear. Calls of active or inactive are those of the source. Calls come from the whole dose curve; as a rule, active = well fitted inhibition curve with a large enough effect; inconclusive = small, poorly fitted or top-dose-only effect; inactive = no such curve, though single readings can be large or run the other way. Residues, ends and D or L forms follow the SMILES beside them. *: point of attachment. Cbz = O=C(OCc1ccccc1)*
Outcomes: active, inactive

INSERT INTO assay_data (compound, classification) VALUES
  ('CSc1nc(N)c2ncn([C@@H]3O[C@H](COP(=O)(O)OP(=O)(O)O)C(O)[C@H]3O)c2n1 (stereo partly specified)', 'inactive'),
  ('COC(=O)[C@H](NC(=O)c1cc(-c2ccccc2)nc2ccccc12)c1ccccc1', 'inactive'),
  ('COc1ccc(C(=O)NCc2cccnc2)cc1C(=O)NCc1cccnc1', 'inactive'),
  ('CC(C)NC[C@H](O)COc1cccc2ccccc12', 'inactive'),
  ('CCC(=O)N1CCN(C(=O)c2ccccc2)CC1', 'inactive'),
  ('NOCC(=O)O', 'inactive'),
  ('CN1CC(O)C(O)C(O)C1CO (stereo unspecified)', 'inactive'),
  ('CCCCCCCC/C=C\CCCCCCCC(=O)NCCc1ccc(O)c(O)c1', 'active'),
  ('CC(C)[C@H](NC(=O)OCc1ccccc1)C(=O)N[C@H](C=O)Cc1ccccc1 (Cbz-Val-Phe-aldehyde)', 'inactive'),
  ('CCCCCCCCCCC(C)(C)C(=O)Nc1c(OC)cc(OC)cc1OC', 'inactive'),
  ('N#C/C(=C\c1ccc(O)c(O)c1)C(=O)NCCc1ccccc1', 'inactive'),
  ('Nc1ncnc2c1c(-c1ccc(Oc3ccccc3)cc1)cn2C1CCCC1', 'inactive'),
  ('Cc1cc(Cn2cnc3c2C[C@@H](C(=O)O)N(C(=O)C(c2ccccc2)c2ccccc2)C3)ccc1N', 'inactive'),
  ('C[C@H](O)C(=O)C1=Nc2c(nc(N)[nH]c2=O)NC1', 'inactive'),
  ('NC(N)=[N+]1CCc2ccccc2C1', 'inactive'),
  ('NC1(C(=O)O)CCCCC1', 'inactive'),
  ('Nc1nc2c(cnn2CCc2ccccc2)c2nc(-c3ccco3)nn12', 'inactive'),
  ('NCCCCN', 'inactive'),
  ('Nc1ncnc2c1ncn2C1CCCO1 (stereo unspecified)', 'inactive'),
  ('NCCNS(=O)(=O)c1cccc2c(Cl)cccc12', 'inactive'),
  ('NS(=O)(=O)c1cccc2c1c([N+](=O)[O-])cc1nc(O)c(O)nc12', 'inactive'),
  ('COc1cc(C(O)CO)ccc1O (stereo unspecified)', 'inactive'),
  ('COc1cc(CNC(=O)CCCCCCC(C)C)ccc1O', 'inactive'),
  ('O=C(OCCN1CCOCC1)C1(c2ccccc2)CCCCC1', 'inactive'),
  ('NCCS(=O)O', 'inactive'),
  ('CN[C@H](CC(=O)O)C(=O)O', 'inactive'),
  ('O=c1ccc2c(OCCCCc3ccccc3)c3ccoc3cc2o1', 'inactive'),
  ('N#C/C(=C\c1ccc(O)c(O)c1)C(=O)NCCCNC(=O)/C(C#N)=C/c1ccc(O)c(O)c1', 'inactive'),
  ('Cc1nc(N=Nc2cc(S(=O)(=O)O)c3cc([N+](=O)[O-])cc(S(=O)(=O)O)c3c2)c(COP(=O)(O)O)c(C=O)c1O', 'inactive'),
  ('O=c1[nH]c(=O)c2nc3ccccc3nc2[nH]1', 'inactive'),
  ('CC1=C(/C=C/C(C)=C/C=C/C(C)=C\C(=O)O)C(C)(C)CCC1', 'inactive'),
  ('CC(=O)O[C@H]1CC2(C)[C@@H](C[C@@H](O)[C@H]3[C@@]4(C)CC[C@@H](O)[C@@H](C)[C@@H]4CC[C@@]32C)C1=C(CCC=C(C)C)C(=O)O (stereo partly specified)', 'inactive'),
  ('[N-]=[N+]=Nc1ccc(C(=O)CSC[C@H](NC(=O)CC[C@H](N)C(=O)O)C(=O)NCC(=O)O)cc1', 'inactive'),
  ('O=S(=O)(c1cccc2c(Cl)cccc12)N1CCCNCC1', 'inactive'),
  ('CNCCc1cnc(CCC(c2ccccc2)c2ccccc2)[nH]1', 'inactive'),
  ('N#CC(C#N)=C(N)/C(C#N)=C/c1ccc(O)cc1', 'inactive'),
  ('N=S(=O)(O)Cc1noc2ccccc12', 'inactive'),
  ('Cc1nc(N=Nc2ccc(S(=O)(=O)O)cc2S(=O)(=O)O)c(COP(=O)(O)O)c(C=O)c1O', 'inactive'),
  ('O=C(O)/C(=C/c1c(C(=O)O)[nH]c2cc(Cl)cc(Cl)c12)c1ccccc1', 'inactive'),
  ('O=C(O)c1cc(=O)cc(C(=O)O)[nH]1', 'inactive'),
  ('N[C@H]1CONC1=O', 'inactive');
